protein stability index overview
B1: NP_009172.2 (parent)
chain: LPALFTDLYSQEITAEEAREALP

- Variants of: B1
- assayProtocol: protein stability index of a GFP-peptide fusion (GPS, HEK-293T) (PSI 1-6); higher = more stable;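 note: lentivirally expressed fusion library, cells FACS-sorted into six equal-sized GFP/DsRed ratio bins, PSI computed from sequencing read fractions per bin weighted by bin number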
- conditionDescription: c terminus: native
Response field accepts a number only; no unit should be typed.

T14M    2.45
Y9A    2.34
I13K    2.66
T14P    3.48
R19S    2.89

Now let's try a different one.
Entry E17L ; protein stability index = 2.16
